target: SHP2 N-SH2 domain T42A; assay: log2 enrichment relative to wild-type ITIM peptide; higher = stronger binding
Assign Yes whenever log2 enrichment does not fall below -0.8; assign No whenever it does.

binder	class_assignment
VFNVDYGELDF [PD-1 ITIM pTyr223 peptide variant S220N]	Yes
VFSTDYGELDF [PD-1 ITIM pTyr223 peptide variant V221T]	No
VFSVDYAELDF [PD-1 ITIM pTyr223 peptide variant G224A]	Yes
VFSVDYGEHDF [PD-1 ITIM pTyr223 peptide variant L226H]	No
VFSVDYGYLDF [PD-1 ITIM pTyr223 peptide variant E225Y]	Yes
VFSVDYGELDQ [PD-1 ITIM pTyr223 peptide variant F228Q]	No
VYSVDYGELDF [PD-1 ITIM pTyr223 peptide variant F219Y]	Yes
VFSVDYGELDR [PD-1 ITIM pTyr223 peptide variant F228R]	No
VFSVDYGEIDF [PD-1 ITIM pTyr223 peptide variant L226I]	Yes
VFSVDYQELDF [PD-1 ITIM pTyr223 peptide variant G224Q]	Yes
VFQVDYGELDF [PD-1 ITIM pTyr223 peptide variant S220Q]	Yes
VFSVDYGELDI [PD-1 ITIM pTyr223 peptide variant F228I]	No
VFSVDYGELDD [PD-1 ITIM pTyr223 peptide variant F228D]	No
VFSVDYGELDS [PD-1 ITIM pTyr223 peptide variant F228S]	No
VFSADYGELDF [PD-1 ITIM pTyr223 peptide variant V221A]	No
VFSVDYGHLDF [PD-1 ITIM pTyr223 peptide variant E225H]	Yes
VFSVDYGELDG [PD-1 ITIM pTyr223 peptide variant F228G]	No
VFSVDYGSLDF [PD-1 ITIM pTyr223 peptide variant E225S]	Yes
